The origin of these recorded values is the Human Domainome abundance scans (Beltran et al. 2025).

B1: SAM and SH3 domain-containing protein 1, residues 630 to 700; numbered along this chain, O94885 (parent)
chain: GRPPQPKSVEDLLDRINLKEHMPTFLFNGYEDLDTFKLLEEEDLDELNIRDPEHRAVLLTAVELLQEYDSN

Variants of: B1
experiment summary: abundance fitness (aPCA) (normalised: wild type 0, dead -1); higher = more abundant; growth selection in yeast, the domain comes from the species named
cond: Homo sapiens

chain	abundance fitness
GRPPQPKSVEDLLDRINLKEHMPTFLFNGYEDLDTFKLLEEEDLDELNIRDPEHRAVLLTAVELFQEYDSN	-0.696
GRPPQPKSVEDLLDRINLKEHMWTFLFNGYEDLDTFKLLEEEDLDELNIRDPEHRAVLLTAVELLQEYDSN	-0.103
GRPPQPKSVEDLLDRINLKEHMPTFLFNGYEDLDTFKLLEEEDLDELNIRDPEHRATLLTAVELLQEYDSN	0.232
GRPPQPKSVEDLLDRINLKEHMPTFLFNGYEDLDTFKLLEEETLDELNIRDPEHRAVLLTAVELLQEYDSN	-0.19
GRPPQPKSVEDLLDRINLKEHMPTFLFNGYEDLATFKLLEEEDLDELNIRDPEHRAVLLTAVELLQEYDSN	-0.145
GRPPQPKSVEDLLDRINLKEHMPTFLFNGYYDLDTFKLLEEEDLDELNIRDPEHRAVLLTAVELLQEYDSN	-0.124
GRPPQPKSVEDLLDRINLKEHMPTFLFNGYEDLDTFKLLEEEDLDELNIRRPEHRAVLLTAVELLQEYDSN	-0.611
GRPPQPKSVEDLLDRINLKEHMPTFLFNGYEDLDTFKLLEEEDLDELNIRDPFHRAVLLTAVELLQEYDSN	-0.673
GRPPQPKSVEDLLDRIWLKEHMPTFLFNGYEDLDTFKLLEEEDLDELNIRDPEHRAVLLTAVELLQEYDSN	-0.956
GRPPQPKSVEDLLDRINLKEHMRTFLFNGYEDLDTFKLLEEEDLDELNIRDPEHRAVLLTAVELLQEYDSN	-0.225
GRPPQPKSVEDLLDRINLKEHMPYFLFNGYEDLDTFKLLEEEDLDELNIRDPEHRAVLLTAVELLQEYDSN	-0.98
GRPPQLKSVEDLLDRINLKEHMPTFLFNGYEDLDTFKLLEEEDLDELNIRDPEHRAVLLTAVELLQEYDSN	-0.434
GRPPQPMSVEDLLDRINLKEHMPTFLFNGYEDLDTFKLLEEEDLDELNIRDPEHRAVLLTAVELLQEYDSN	-0.309
GRPPQPKSVEDLLDRINLKEHMPTFLFNGYEDLDTFKLLEEEDLDELNIRDPECRAVLLTAVELLQEYDSN	-0.678
GRPPQPKSVEDLLDRINLKEHMPTFLFNGYEDLDTFKLLEEEDLDELNIRDPEHRAVLLTAVELLQGYDSN	-0.107
